Test system: NOTCH1
Experiment: 3' UTR reporter interaction score (median-centred robust z-score of log2 firefly/Renilla activity); higher = less repression of the 3' UTR reporter
Conditions: HEK293T; 48 h
Measured 3' UTR reporter interaction score, listed per entry for reference.
Please reply with the number alone, leaving off any unit.

>>> print(df.to_string())
             residue_string  value_reported
0  GUCCAGUUUUCCCAGGAAUCCCUU           0.816

Record summary for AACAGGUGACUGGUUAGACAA : reported 3' UTR reporter interaction score = 1.15

Record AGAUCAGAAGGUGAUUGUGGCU , field 3' UTR reporter interaction score: 0.74

// field: 3' UTR reporter interaction score; key: UAUUGCACAUUACUAAGUUGC ; value = -0.36

// field: 3' UTR reporter interaction score; key: UGGUUUACCGUCCCACAUACAU ; value = -0.0746

For this sequence ( CUCUAGAGGGAAGCACUUUCU ), measured 3' UTR reporter interaction score is 0.59

====

Test system: PHF6
Test: 3' UTR reporter interaction score (median-centred robust z-score of log2 firefly/Renilla activity); higher = less repression of the 3' UTR reporter
Details: HEK293T; 48 h
Measure: 3' UTR reporter interaction score
Answer field: number only, no words.

Some solved entries appear below for comparison.
>>> df
             residue_string  system                            measure  value_reported
0     GCGACCCACUCUUGGUUUCCA    PHF6  3' UTR reporter interaction score           -1.86
1    ACUCAAAAUGGGGGCGCUUUCC    PHF6  3' UTR reporter interaction score            2.12
2   AAAGUGCUUCUCUUUGGUGGGUU    PHF6  3' UTR reporter interaction score         -0.0534
3     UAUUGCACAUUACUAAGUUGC    PHF6  3' UTR reporter interaction score           0.521
4   UAAAUCCCAUGGUGCCUUCUCCU    PHF6  3' UTR reporter interaction score            1.14
5  GACCUGGACAUGUUUGUGCCCAGU    PHF6  3' UTR reporter interaction score           0.792

Value of 3' UTR reporter interaction score reported for the sequence UUUGGCACUAGCACAUUUUUGC is -0.863

// AAAAUGGUUCCCUUUAGAGUGUU : 3' UTR reporter interaction score value = 0.573

====

Tested on: EZH2
Assay: 3' UTR reporter interaction score (median-centred robust z-score of log2 firefly/Renilla activity); higher = less repression of the 3' UTR reporter
Conditions: HEK293T; 48 h
Measure: 3' UTR reporter interaction score
Could you keep your reply to the number by itself?

Some solved cases for reference:
>>> print(df.to_string())
            residue_string  value_reported
0  UCUUGGAGUAGGUCAUUGGGUGG           0.166
1    AUCGGGAAUGUCGUGUCCGCC          -0.604
2   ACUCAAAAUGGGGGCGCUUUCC           0.137
3   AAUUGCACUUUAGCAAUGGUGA           -0.64
4  AAAAGCUGGGUUGAGAGGGCGAA           -2.65

The measured 3' UTR reporter interaction score associated with UGACAACUAUGGAUGAGCUCU reads 0.197

Record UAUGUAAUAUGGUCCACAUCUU , field 3' UTR reporter interaction score: -0.223

The recorded 3' UTR reporter interaction score for CUGGACUUGGAGUCAGAAGGCC is -1.01
